# melting point annotations

>  <smilesStr>
OC[C@H]1S[C@@H](Oc2ccccc2Cc2ccc(N3CCOCC3)cc2)[C@H](O)[C@@H](O)[C@@H]1O

>  <melting point>
174 to 176.5 °C

$$$$
>  <smilesStr>
CCc1ccc(Cc2cc(F)ccc2O[C@@H]2S[C@H](CO)[C@@H](O)[C@H](O)[C@H]2O)cc1

>  <melting point>
163 to 165.5 °C

$$$$
>  <smilesStr>
COc1ccc(Cc2cc(Cl)ccc2O[C@@H]2S[C@H](CO)[C@@H](O)[C@H](O)[C@H]2O)c(OC)c1

>  <melting point>
195.5 to 197 °C

$$$$
>  <smilesStr>
CCCCOc1ccc(Cc2cc(Cl)ccc2O[C@@H]2S[C@H](CO)[C@@H](O)[C@H](O)[C@H]2O)cc1

>  <melting point>
166 to 169 °C

$$$$
